Hey, just so you know, these numbers are from the CheMixHub drug solubility set.

- experimentSummary: xn = mol fraction of the nth substance listed, in the solute-free solvent
- conditionParameters: 323.15 K; x2 = 0.3103
readoutKind: solubility (g/100 g solution)
Give bare numbers.

Recorded results for 2 molecules are shown here.
molecule	experimentalResult
CN1CCC(N(Cc2cccs2)c2ccccc2)CC1 + CC(C)O + O	2.52
Nc1cccc2ccncc12 + CCCO + O	2.38

Parameter requested: solubility (g/100 g solution). Apply to each item below.
1. Cc1ccc2cc(Br)ccc2n1 + CC(C)O + O
2. CN1CCC(N(Cc2cccs2)c2ccccc2)CC1 + CCCO + O
3. Nc1cccc2ccncc12 + CC(C)O + O

stdout:
1. 1.79
2. 3.18
3. 1.95

###

- experimentSummary: xn = mol fraction of the nth substance listed, in the solute-free solvent
- conditionParameters: 313.15 K; x2 = 0.7297
Assign solubility (g/100 g solution) to each entry below.
Numbers only.

molecule	solubility (g/100 g solution)
CN1CCC(N(Cc2cccs2)c2ccccc2)CC1 + CC(C)O + O	3.13
Nc1cccc2ccncc12 + CC(C)O + O	2.16
Nc1cccc2ccncc12 + CCCO + O	2.6
CN1CCC(N(Cc2cccs2)c2ccccc2)CC1 + CCCO + O	3.98

# next molecule below
stdin: Entry under review: Cc1ccc2cc(Br)ccc2n1 + CC(C)O + O . Reported solubility (g/100 g solution)?
stdout: 2.1

###

- experimentSummary: xn = mol fraction of the nth substance listed, in the solute-free solvent
- conditionParameters: 303.15 K; x2 = 0.5454
Assign solubility (g/100 g solution) to each entry below.
Numbers only.

compound	readoutKind	experimentalResult
CN1CCC(N(Cc2cccs2)c2ccccc2)CC1 + CCCO + O	solubility (g/100 g solution)	3
CN1CCC(N(Cc2cccs2)c2ccccc2)CC1 + CC(C)O + O	solubility (g/100 g solution)	2.34
Nc1cccc2ccncc12 + CCCO + O	solubility (g/100 g solution)	1.78
Cc1ccc2cc(Br)ccc2n1 + CC(C)O + O	solubility (g/100 g solution)	1.4

stdin: Entry under review: Nc1cccc2ccncc12 + CC(C)O + O . Reported solubility (g/100 g solution)?
stdout: 1.46

###

Assign solubility (g/100 g solution) to each entry below.
- experimentSummary: xn = mol fraction of the nth substance listed, in the solute-free solvent
- conditionParameters: 313.15 K; x2 = 0.06974
Give bare numbers.

Recorded results for 4 molecules are shown here.
molecule	solubility (g/100 g solution)
Cc1ccc2cc(Br)ccc2n1 + CC(C)O + O	0.356
CN1CCC(N(Cc2cccs2)c2ccccc2)CC1 + CCCO + O	0.682
Nc1cccc2ccncc12 + CC(C)O + O	0.372
CN1CCC(N(Cc2cccs2)c2ccccc2)CC1 + CC(C)O + O	0.551

# next molecule below
stdin: Entry under review: Nc1cccc2ccncc12 + CCCO + O . Reported solubility (g/100 g solution)?
stdout: 0.45

###

- experimentSummary: xn = mol fraction of the nth substance listed, in the solute-free solvent
- conditionParameters: 318.15 K; x2 = 0.7297
readoutKind: solubility (g/100 g solution)
Answers are plain numbers.

Recorded results for 4 molecules are shown here.
molecule	experimentalResult
Nc1cccc2ccncc12 + CCCO + O	3.03
Nc1cccc2ccncc12 + CC(C)O + O	2.51
CN1CCC(N(Cc2cccs2)c2ccccc2)CC1 + CCCO + O	4.36
Cc1ccc2cc(Br)ccc2n1 + CC(C)O + O	2.4

# next molecule below
stdin: Entry under review: CN1CCC(N(Cc2cccs2)c2ccccc2)CC1 + CC(C)O + O . Reported solubility (g/100 g solution)?
stdout: 3.41
